Can you tell me Relative Phosphorylation to Autophosphorylation Control (set at 100), PKCa for the items I'm about to list?
target: protein kinase C-alpha (PKC α) (Homo sapiens); construct: GST; purchased SignalChem P61-18G; test: In vitro phosphorylation of nucleocapsid peptides, ADP-Glo, PKCa; type: biochemical; conditions: peptide ~250 μM, 250 μM ATP, 30 min at 30° C.; duplicate measurements
Where no end group is shown, it is not given here. [ ]: non-standard residue; d: D form. pT = C[C@@H](OP(=O)(O)O)[C@H](N)C(=O)O; pS = N[C@@H](COP(=O)(O)O)C(=O)O
Answers are plain numbers.

>>> reported_measurement("SQASSRSSSR(pS)RNS (SQASSRSSSR[pS]RNS) [SCV2-N [180-193]-pS190, synthetic peptide modeled after SARS-CoV-2 nucleocapsid protein phosphorylation sites, pre-phosphorylated at S190]")
418
>>> reported_measurement("RGGSQASSRSSSRS [SCV2-N [177-190], synthetic peptide modeled after SARS-CoV-2 nucleocapsid protein phosphorylation sites]")
1320

Fill in Relative Phosphorylation to Autophosphorylation Control (set at 100), PKCa for each of the 3 substances listed.
1. RGGSQASSRSS(pS)RS (RGGSQASSRSS[pS]RS) [SCV2-N [177-190]-pS188, synthetic peptide modeled after SARS-CoV-2 nucleocapsid protein phosphorylation sites, pre-phosphorylated at S188]
2. SQASSRSSSRSRNS [SCV2-N [180-193], synthetic peptide modeled after SARS-CoV-2 nucleocapsid protein phosphorylation sites]
3. SSRSRNSSRNSTPG [SCV2-N [187-200], synthetic peptide modeled after SARS-CoV-2 nucleocapsid protein phosphorylation sites]

389
1278
1080

Value of measured Relative Phosphorylation to Autophosphorylation Control (set at 100), PKCa for the entry SSRSRNSSRNS(pT)PG (SSRSRNSSRNS[pT]PG) [SCV2-N [187-200]-pT198, synthetic peptide modeled after SARS-CoV-2 nucleocapsid protein phosphorylation sites, pre-phosphorylated at T198] : 553

The reported numbers originate from patent US20250042887A1.
